Experiment: soluble on expression in E. coli; label from the status in PepcDB or PDB records
parameter_measured: soluble on expression in E. coli

>>> observed_value("LLGLGVGPGDPELITLKALRLLRAAPVVGYFVAKGKKGNAFGIIEAHLDQAQVRLPLVYPVTTEKLEPPLCYETIISDFYDTAAEQLAAHLDAGRDVAVICEGDPFFYGSYMYLHDRLATRYESEVVPGVCSMLGGAAVLGAPLVYRNQSLSVLSGVLPEEELRRRLADADAAVVMKLGRNFDKVRRVLVELGLERRALYVERATMANQRIVPLERVEPMASPYFSLIVVPGDKWQGGAGGE")
"not soluble"
>>> observed_value("MSLSKSDDGDSEESFSISVQSGFEAMSQELCIVMCLKDLTSIVDIKTSSRPAMIGSLTDGSTETFWESGDEDKNKTKNITINCVKGINARYVSVHVDNSRDLGNKVTSMTFLTGKAVEELCRIKQVDLDSRHIGWVTSELPGGDNQIIKIELKGPENTLRVRQVKVLGWKDGESTKIAGQISASVAQQRSCEAETLRVFRLITSQVFGKLISGDAEEGHHHHHH")
"soluble"
>>> observed_value("MCTTCGCAEGNLYIEGDEHNPHSAFRSAPFAPAARPALNITGIKTPDFAPSQTAEGDLHYGHGEAGTHAPGMSQRRMLEVEIDVLDKNNRLAERNRARFAARQQLVLNLVSSPGSGKTTLLTETLMKLKDRVPCAVIEGDQQTVNDAARIRATGTPAIQVNTGKGCHLDAQMIADAAPRLPLDDHGILFIENVGNLVCPASFDLGEKHKVAVLSVTEGEDKPLKYPHMFAAASLMLLNKVDLLPYLNFDVEKCIASAREVNPEIEIILISATSGEGMDQWLAWLEAQRCA")
"not soluble"
>>> observed_value("MLSVIIITKNEEANIRRCLESVHFADEIIVLDSGSTDNTLAIAREYTDKVFSTDWQGYGIQKDRALQKAQGDWVLNLDADESVSSELRQEILQAISSDTADAFRIPIQMIFYNQVLKYSGSPKRHIRLFKRENASYSKDIVHEKVLIPVNARVGKLKKPIWHHSFSDVHHVLYKLNKYSSYSAKIRIESNEKVGLVKTFFSALWMFVRCLFLQKGFLDGRAGFLFAVFGAQGAFYRGVKQIYKDRDINKLPSVNHIKEELEHHHHHH")
"soluble"
>>> observed_value("MRSRHDTYNNDCDRTLVIMAQRTLAYIVSRRQSASGFTTTARARRWHV")
"not soluble"
>>> observed_value("MSLQIVPYLIFNGNCREAFSCYHQHLGGTLEAMLPFGDSPECGDIPADWKDKIMHARLVVGSFALMASDNHPAYPYEGIKGCSISLNVDSKAEAERLFNALAEGGSVQMPLGPTFWAASFGMFTDRFGVAWMVNCEQDREGGSHHHHHH")
"soluble"
>>> observed_value("GMTDTNLVEMRAIERMMFDYSYHLDMNHPEELAALFVEDCEVSYAPNFGATGRDAYKKTLEGIGTFFRGTSHHNSNICIDFVSETEANVRSVVLAIHRYTKERPDGILYGQYFDTVVKVDGQWKFKRRELRTTMTTDYHVRAANPIGRAE")
"soluble"
>>> observed_value("MGSDKIHHHHHHMENLKTYFYTEDGVVKAVDGVSFEVREGETLGIVGESGSGKSVTSLSIMRLLDQNGKIVDGKIIFKGRNLLELSENEMRKIRGKEIAMIFQEPMVALNPVFTIGDQIMEAIILHQNVSEKEARKMAIDLLRKVGIPEPEKRVDEYPHQLSGGMRQRAMIAMALSCRPSLLIADEPTTALDVTIQAQILELMKELQKEYGMAIILITHDMGVVAEMSDKVAVMYAGKVVEYGDVKTIFTEPKHPYTYALLESIPRIDVEQERLKSIPGNVPDPLNFPPGCKFHPRCEFFEKGKCDVEEPELEDLDGNHKVRCFFWQKLDEMRHAKSEV")
"not soluble"
>>> observed_value("AGHMVSCCYRSLAAPDLTLRDLLDIVETSQAHNARAQLTGALFYSQGVFFQWLEGRPAAVAEVMTHIQRDRRHSNVEILAEEPIAKRRFAGWHMQLSCSEADMRSLGLAESRQIVTVGRSL")
"soluble"
>>> observed_value("MNPIEIIDKFYPQDTEQRHILLIHSLSVAQKALKIVDAHPNLPINRSFVREAALLHDIGIFMTDAPTIQCFGEHPYIAHGYLGADLLRKEGFERHALVCERHTGAGLTLEEIIERQLPVPHREMVPVTLEEQIICFADKFFSKTHLDEEKTVEKARKSIAKYGEEGLNRFDGWCSLFL")
"not soluble"
>>> observed_value("MLYSSNAILLTVICYELPLSERIRMLLRLEDLFDKIDFFSARDTSFEHHAVLVALFEILDVTSRSDLKSDLLQELDKQRTMLEGLRSNPEVSEKALDHILQDIRAAFRGLLDIPGRIGGHLRDDEWLMSVKQRMSIPGAACEFDLPAYHYWLNLAPEIRREDLKDWITPFTPIRSGINIVLNMLRNSGKNCCYTAVQGLFQQAGSEHQAHLLRLHISSEFPCVPEISANKYALNIRFVPWRSDHKTEVYEEDIPFELTFCSL")
"not soluble"
>>> observed_value("AKMLGLDFVAVVPRSTSGAKIALIEAQGGRCHFIDRPPEIYSEARRLAAETNGHFMDQFTHAERATDWRGNNNIAESIYHQMIREEHPVPEWLVMSAGTGGTSATLGRYIRYRRHATRLLVVDPENSAFFGGYDSNSCDYATGMPSRIEGIGRPRVEPSFVGQVIDRMMRVPDAASIATARHASSVLGRRVGGSTGTNLWGAFAVVAEMLAAGRSGSVVTILCDGGERYADTYFDDDWVAGEGIDLTGPAAVLDRFA")
"not soluble"
>>> observed_value("MGSDKIHHHHHHAQFKIGGKKINVGKVVQAGSDAAKAITLSDSDIAAMSKEYMQWMDTHNPLTAADSEYGKRLEKLTGHIKEVDGLKVNFGVYEVVDVNAFACGDGSVRICAGLMDIMTDDEVMAVVGHEIGHVIHTDSKDAMKSAYLRSAVKNAAGAASSTVSKLTDSELGAMAEALAGAQYSQKQESEADDYGFEFSIKHNIDPYAMYNALNKLLELSAEAPKESKFQKMFSSHPDTAKRVARAKEKADNYTKNK")
"not soluble"
>>> observed_value("MSLENYLEEELIIGGIEINYLYVCKTKLWYFVRGITMEQESDFVDLGKFLHEKSYFGEEKEVQIGSIKIDFIKKRDVIEIHEVKRGKQMEKAHIMQVLYYIYYLNSLGIKSKAILHYPKLKEIKEIELKENNKEEIKRAIKEIEYIKSLKEPPEPIYQKICKNCAYYELCFIEGHHHHHH")
"soluble"

----------
Experiment: soluble on expression in E. coli; label from the status in PepcDB or PDB records
parameter_measured: soluble on expression in E. coli

>>> observed_value("MSLRSSFRVGVTEDRNKKCRRTMEDTHAYLYNFLGNPVPSAQNDDSDQSSHPSDASPKTGELTPIVETDNGYFAIFDGHAGTFAAQWCGKKLHLILEDVMRKNINAPVPELLDQTFTSVDQQLEKLPVKNSGCTAVVALLRWEDRIPTPSSVTGSSAIGPAAVAATKAGADSKADDTPTQEAAATPVPAIPPKLREKAIRQRVLYTANVGDARVILCRNGKALRLSYDHKGSDENEGRRIANAGGLIMNNRVNGVLAVTRALGDAYIKDLVTGHPYTTETVIQPDLDEFIILASDGLWDVCSDQEAVDLIRNVSDAQEASKILVDHALARFSTDNLSCMVIRLYADREGHHHHHH")
"soluble"
>>> observed_value("SLRKVGLTALEWLKQHPEIKQHKESSLYEQLFASQQWQQAQTIGMIRSLPLELSTQPIFERAMQESKQVAVPRTFKGGKMHFYQVFPETVYDTSAFGVEEPPLTAAEITATAIDLLIVPGIVFNRAGYRIGFGGGFYDRYLEHFSGHSCSLVFSEQLHEQWQPEAFDQPIEQLFIQ")
"soluble"
>>> observed_value("SMQELFNNLMELCKDSQRKFFYSDDVSASGRTYRIFSYNYASYSDWLLPDALECRGIMFEMDGEKPVRIASRPMEKFFNLNENPFTMNIDLNDVDYILTKEDGSLVSTYLDGDEILFKSKGSIKSEQALMANGILMNINHHRLRDRLKELAEDGFTANFEFVAPTNRIVLAYQEMKIILLNVRENETGEYISYDDIYKDATLRPYLVERYEIDSPKWIEEAKNAENIEGYVAVMKDGSHFKIKSDWYVSLHSTKSSLDNPEKLFKTIIDGASDDLKAMYADDEYSYRKIEAFETTYLKYLDRALFLVLDCHNKHCGKDRKTYAMEAQGVAKGAGMDHLFGIIMSLYQGYDSQEKVMCEIEQNFLKNYKKFIPEGY")
"soluble"

----------
Assay: soluble on expression in E. coli; label from the status in PepcDB or PDB records
parameter_measured: soluble on expression in E. coli

>>> observed_value("MSLRQAHFLKGKDAMNNPSVIPAFDFREMVTTLDNKIITTSLKVADYFGKRHKDVLRAIRNLKCSDDFTQRNFAPIDFIDKNGDVQPMYNITRDGCMMLVMGFTGKTAAAVKECYINAFNWMAEQLNRRMAMGEEGHHHHHH")
"soluble"
>>> observed_value("YLDLWQTQDAKIRAKLAAVFQAEQNLNEAAIAYCLARALPEETAIFFANSMVVRYAEFFWQLNDQQILPYFNRGANGIDGTLSTALGIAENHSPAVLLTGDLALLHDINGFLTLSKFTGSLTIIVINNQGGGIFEMLPIAEEKDIFEDYFATPQTVEFSKVCDLYGIEYQAIQTKADLMQTCAILPPRGVRLLEVKTNRNQAMTWLKDLFQ")
"not soluble"
>>> observed_value("MGSDKIHHHHHHVLIWWRGKFRRADEISLDFSLFEKSLQGAVYETLRTYSRAPFAAYKHYTRLKRSADFFNLPLSLSFDEFTKVLKAGADEFKQEVRIKVYLFPDSGEVLFVFSPLNIPDLETGVEVKISNVRRIPDLSTPPALKITGRTDIVLARREIVDCYDVILLGLNGQVCEGSFSNVFLVKEGKLITPSLDSGILDGITRENVIKLAKSLEIPVEERVVWVWELFEADEMFLTHTSAGVVPVRRLNEHSFFEEEPGPVTATLMENFEPFVLNLEENWVGI")
"soluble"
>>> observed_value("MIHDYHWRRGKRRKLIVMMETRMMIIMMTIKPPHDIYREQQNHHDDETKRSTKHCVTATHPWPRPAASCFRCPLRGGHHRRRPACALPHGWSVMNSCSLEHHHHHH")
"not soluble"

Data provenance is the DeepSol protein solubility set.
